This collection of values is drawn from patent US20190330275A1.

# target-or-test-system: rat α6/α3β4 nAChR (Rattus norvegicus, UniProt P04757+P12392+P43143)
# Sequence (P04757 whole entry, looked up): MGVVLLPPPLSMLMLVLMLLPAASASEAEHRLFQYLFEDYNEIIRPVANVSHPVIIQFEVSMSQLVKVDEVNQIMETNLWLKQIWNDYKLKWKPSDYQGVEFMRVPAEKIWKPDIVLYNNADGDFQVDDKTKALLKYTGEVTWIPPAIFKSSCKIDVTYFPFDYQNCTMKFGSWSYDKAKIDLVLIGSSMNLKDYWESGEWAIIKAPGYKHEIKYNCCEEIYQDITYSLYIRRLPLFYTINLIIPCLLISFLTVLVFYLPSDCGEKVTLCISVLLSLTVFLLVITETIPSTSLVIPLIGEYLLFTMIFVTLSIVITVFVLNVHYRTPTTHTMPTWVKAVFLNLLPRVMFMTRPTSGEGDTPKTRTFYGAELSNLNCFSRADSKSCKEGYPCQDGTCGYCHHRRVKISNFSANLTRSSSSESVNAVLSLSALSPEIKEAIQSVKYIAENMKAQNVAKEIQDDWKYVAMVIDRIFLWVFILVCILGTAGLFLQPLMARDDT
# Sequence (P12392 whole entry, looked up): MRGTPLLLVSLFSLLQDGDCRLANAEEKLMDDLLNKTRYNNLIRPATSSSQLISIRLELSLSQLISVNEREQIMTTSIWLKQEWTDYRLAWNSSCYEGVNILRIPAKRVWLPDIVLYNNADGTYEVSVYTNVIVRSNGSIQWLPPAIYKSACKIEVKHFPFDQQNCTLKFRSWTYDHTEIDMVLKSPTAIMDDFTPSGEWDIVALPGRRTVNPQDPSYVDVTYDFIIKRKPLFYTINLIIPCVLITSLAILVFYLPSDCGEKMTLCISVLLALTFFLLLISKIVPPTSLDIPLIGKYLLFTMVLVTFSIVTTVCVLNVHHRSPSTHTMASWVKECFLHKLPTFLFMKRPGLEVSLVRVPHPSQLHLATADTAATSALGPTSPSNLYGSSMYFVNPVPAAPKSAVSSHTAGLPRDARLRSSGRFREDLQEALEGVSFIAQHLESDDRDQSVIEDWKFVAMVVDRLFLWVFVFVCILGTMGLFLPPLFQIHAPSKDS
# Sequence (P43143 whole entry, looked up): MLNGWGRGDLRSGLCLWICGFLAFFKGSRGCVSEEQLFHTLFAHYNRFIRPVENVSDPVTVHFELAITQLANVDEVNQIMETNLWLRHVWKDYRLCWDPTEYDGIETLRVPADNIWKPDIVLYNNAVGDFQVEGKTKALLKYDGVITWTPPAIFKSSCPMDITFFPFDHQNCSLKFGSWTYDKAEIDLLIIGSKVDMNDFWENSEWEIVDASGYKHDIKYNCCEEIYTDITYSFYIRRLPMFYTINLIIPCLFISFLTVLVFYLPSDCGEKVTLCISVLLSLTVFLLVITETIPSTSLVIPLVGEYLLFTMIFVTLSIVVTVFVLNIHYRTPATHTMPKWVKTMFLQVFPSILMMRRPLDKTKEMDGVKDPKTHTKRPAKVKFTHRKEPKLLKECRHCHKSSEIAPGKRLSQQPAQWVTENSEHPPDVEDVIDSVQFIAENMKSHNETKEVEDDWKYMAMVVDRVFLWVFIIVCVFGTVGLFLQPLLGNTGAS
# assay-text: cell-based
Peptide text beside a SMILES is read from it.
result-type: IC50 ratio of α6/α3β4 vs. α3β4 (Discrimination)

Example cases with answers are listed next.
compound	target-or-test-system	endpoint-result
CC[C@H](C)[C@@H]1NC(=O)[C@@H]2CCCN2C(=O)[C@H](Cc2ccc(O)cc2)NC(=O)[C@H](CCSC)NC(=O)[C@H](C)NC(=O)[C@H](CO)NC(=O)[C@@H]2CSSC[C@H](NC(=O)CN)C(=O)N[C@@H](CSSC[C@@H](C(N)=O)NC1=O)C(=O)N[C@@H](CO)C(=O)N[C@@H](Cc1c[nH]cn1)C(=O)N1CCC[C@H]1C(=O)N[C@@H](C(C)C)C(=O)N2 [TxID[S12Y]] (HELM PEPTIDE1{G.C.C.S.H.P.V.C.S.A.M.Y.P.I.C.[am]}$PEPTIDE1,PEPTIDE1,2:R3-8:R3|PEPTIDE1,PEPTIDE1,3:R3-15:R3$$$V2.0)	rat α6/α3β4 nAChR (Rattus norvegicus, UniProt P04757+P12392+P43143)	3.8
CC[C@H](C)[C@@H]1NC(=O)[C@@H]2CCCN2C(=O)[C@H](CO)NC(=O)[C@H](CCSC)NC(=O)[C@H](C)NC(=O)[C@H](Cc2ccccc2)NC(=O)[C@@H]2CSSC[C@H](NC(=O)CN)C(=O)N[C@@H](CSSC[C@@H](C(N)=O)NC1=O)C(=O)N[C@@H](CO)C(=O)N[C@@H](Cc1c[nH]cn1)C(=O)N1CCC[C@H]1C(=O)N[C@@H](C(C)C)C(=O)N2 [TxID[S9F]] (HELM PEPTIDE1{G.C.C.S.H.P.V.C.F.A.M.S.P.I.C.[am]}$PEPTIDE1,PEPTIDE1,2:R3-8:R3|PEPTIDE1,PEPTIDE1,3:R3-15:R3$$$V2.0)	rat α6/α3β4 nAChR (Rattus norvegicus, UniProt P04757+P12392+P43143)	0.5
CC[C@H](C)[C@@H]1NC(=O)[C@@H]2CCCN2C(=O)[C@H](CO)NC(=O)[C@H](CCSC)NC(=O)[C@H](C)NC(=O)[C@H](Cc2c[nH]cn2)NC(=O)[C@@H]2CSSC[C@H](NC(=O)CN)C(=O)N[C@@H](CSSC[C@@H](C(N)=O)NC1=O)C(=O)N[C@@H](CO)C(=O)N[C@@H](Cc1c[nH]cn1)C(=O)N1CCC[C@H]1C(=O)N[C@@H](C(C)C)C(=O)N2 [TxID[S9H]] (HELM PEPTIDE1{G.C.C.S.H.P.V.C.H.A.M.S.P.I.C.[am]}$PEPTIDE1,PEPTIDE1,2:R3-8:R3|PEPTIDE1,PEPTIDE1,3:R3-15:R3$$$V2.0)	rat α6/α3β4 nAChR (Rattus norvegicus, UniProt P04757+P12392+P43143)	5.6

Input CC[C@H](C)[C@@H]1NC(=O)[C@@H]2CCCN2C(=O)[C@H](CO)NC(=O)[C@H](CCSC)NC(=O)[C@H](C)NC(=O)[C@H](CO)NC(=O)[C@@H]2CSSC[C@H](NC(=O)CN)C(=O)N[C@@H](CSSC[C@@H](C(N)=O)NC1=O)C(=O)N[C@@H](C)C(=O)N[C@@H](Cc1c[nH]cn1)C(=O)N1CCC[C@H]1C(=O)N[C@@H](C(C)C)C(=O)N2 [TxID[S4A]] (HELM PEPTIDE1{G.C.C.A.H.P.V.C.S.A.M.S.P.I.C.[am]}$PEPTIDE1,PEPTIDE1,2:R3-8:R3|PEPTIDE1,PEPTIDE1,3:R3-15:R3$$$V2.0) . Output IC50 ratio of α6/α3β4 vs. α3β4 (Discrimination): 5.9
